Target or system: KCC2 (Homo sapiens)
Sequence (Q9H2X9 1-1116 isoform Q9H2X9-2): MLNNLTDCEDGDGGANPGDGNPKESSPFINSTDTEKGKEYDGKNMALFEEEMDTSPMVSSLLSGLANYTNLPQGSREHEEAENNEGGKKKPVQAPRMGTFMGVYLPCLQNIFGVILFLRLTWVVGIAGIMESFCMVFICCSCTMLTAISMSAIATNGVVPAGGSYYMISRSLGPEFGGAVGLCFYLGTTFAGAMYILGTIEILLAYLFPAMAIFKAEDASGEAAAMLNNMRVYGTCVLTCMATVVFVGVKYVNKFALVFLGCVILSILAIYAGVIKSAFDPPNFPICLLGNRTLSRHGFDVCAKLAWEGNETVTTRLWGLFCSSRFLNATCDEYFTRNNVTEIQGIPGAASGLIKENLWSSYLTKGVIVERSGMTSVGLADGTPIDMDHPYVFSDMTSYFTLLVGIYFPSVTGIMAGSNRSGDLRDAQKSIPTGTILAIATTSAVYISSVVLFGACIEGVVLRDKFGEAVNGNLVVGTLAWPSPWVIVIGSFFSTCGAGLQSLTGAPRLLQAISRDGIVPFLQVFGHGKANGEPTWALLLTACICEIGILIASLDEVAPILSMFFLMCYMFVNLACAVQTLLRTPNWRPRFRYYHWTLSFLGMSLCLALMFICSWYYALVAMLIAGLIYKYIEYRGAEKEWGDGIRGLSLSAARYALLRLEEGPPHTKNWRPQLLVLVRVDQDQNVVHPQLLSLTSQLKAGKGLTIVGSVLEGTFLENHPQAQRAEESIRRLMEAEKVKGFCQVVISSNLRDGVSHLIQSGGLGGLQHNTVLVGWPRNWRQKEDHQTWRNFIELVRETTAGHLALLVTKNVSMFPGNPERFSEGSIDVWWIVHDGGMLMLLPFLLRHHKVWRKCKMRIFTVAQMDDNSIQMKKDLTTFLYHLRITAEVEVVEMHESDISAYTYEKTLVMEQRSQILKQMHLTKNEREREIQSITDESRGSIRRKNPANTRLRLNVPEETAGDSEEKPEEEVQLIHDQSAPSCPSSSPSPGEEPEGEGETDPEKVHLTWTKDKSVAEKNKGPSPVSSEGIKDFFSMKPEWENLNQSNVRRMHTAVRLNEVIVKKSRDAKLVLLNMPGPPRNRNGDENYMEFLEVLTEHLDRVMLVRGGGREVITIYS
Protocol description: FLIPR TI+ flux assay, HEK-293 cells expressing KCC2
Assay conditions: HEK-293 cells, 1% β-cyclodextrin (BCD) vehicle; read-out: EC50 for KCC2 as measured by TI+ flux
pEC50: −log10 of the molar value.

Chemical smiles: C[C@@H]1CN(c2nc3c(c(Nc4ccc(C5CCCCC5)cc4)n2)COC3)CCO1
pEC50: 6.58

###

Target or system: UniProt Q9UHW9
Sequence (Q9UHW9 1-1150): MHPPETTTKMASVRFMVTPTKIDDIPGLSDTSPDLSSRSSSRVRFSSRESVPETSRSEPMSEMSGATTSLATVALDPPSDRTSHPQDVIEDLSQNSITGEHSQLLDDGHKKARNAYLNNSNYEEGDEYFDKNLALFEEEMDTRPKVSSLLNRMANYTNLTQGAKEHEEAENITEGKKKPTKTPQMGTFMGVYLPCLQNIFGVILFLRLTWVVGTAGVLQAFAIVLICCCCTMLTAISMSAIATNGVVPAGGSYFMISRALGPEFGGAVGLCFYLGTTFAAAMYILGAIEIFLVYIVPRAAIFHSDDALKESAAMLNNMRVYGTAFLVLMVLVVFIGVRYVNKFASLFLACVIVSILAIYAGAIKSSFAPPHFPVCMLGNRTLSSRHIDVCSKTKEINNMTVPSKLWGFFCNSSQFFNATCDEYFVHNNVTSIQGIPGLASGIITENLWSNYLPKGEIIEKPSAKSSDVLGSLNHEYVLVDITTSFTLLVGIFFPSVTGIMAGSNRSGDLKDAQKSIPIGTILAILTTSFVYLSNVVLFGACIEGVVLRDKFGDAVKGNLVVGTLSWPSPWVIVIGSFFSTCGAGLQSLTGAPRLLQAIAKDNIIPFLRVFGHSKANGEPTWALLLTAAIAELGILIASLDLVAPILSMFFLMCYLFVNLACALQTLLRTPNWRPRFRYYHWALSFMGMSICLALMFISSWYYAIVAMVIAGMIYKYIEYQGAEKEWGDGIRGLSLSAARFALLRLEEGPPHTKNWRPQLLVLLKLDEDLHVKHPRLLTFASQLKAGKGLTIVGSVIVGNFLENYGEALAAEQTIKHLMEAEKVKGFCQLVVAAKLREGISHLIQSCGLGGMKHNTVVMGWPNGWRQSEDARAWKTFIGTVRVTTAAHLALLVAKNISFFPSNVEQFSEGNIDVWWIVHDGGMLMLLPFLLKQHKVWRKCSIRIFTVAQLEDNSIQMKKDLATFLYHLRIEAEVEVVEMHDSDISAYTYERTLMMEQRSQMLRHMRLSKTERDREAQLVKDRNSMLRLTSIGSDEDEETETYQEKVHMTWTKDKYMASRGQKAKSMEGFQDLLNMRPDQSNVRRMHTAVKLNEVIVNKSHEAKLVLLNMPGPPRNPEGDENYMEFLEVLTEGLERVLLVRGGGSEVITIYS
Protocol description: TI+ flux assay, HEK-293 cells expressing KCC3
Assay conditions: read-out: concentration at which effects on KCC3 were seen (EC50 chart FIG. 1G)
Quantity kind: EC50

Compound: C[C@@H]1CN(c2nc3c(c(Nc4ccc(C5CCCCC5)cc4)n2)COC3)CCO1 [Compound A]
Result: > 100 µM

###

Target or system: UniProt P55011
Sequence (P55011 whole entry, species assumed): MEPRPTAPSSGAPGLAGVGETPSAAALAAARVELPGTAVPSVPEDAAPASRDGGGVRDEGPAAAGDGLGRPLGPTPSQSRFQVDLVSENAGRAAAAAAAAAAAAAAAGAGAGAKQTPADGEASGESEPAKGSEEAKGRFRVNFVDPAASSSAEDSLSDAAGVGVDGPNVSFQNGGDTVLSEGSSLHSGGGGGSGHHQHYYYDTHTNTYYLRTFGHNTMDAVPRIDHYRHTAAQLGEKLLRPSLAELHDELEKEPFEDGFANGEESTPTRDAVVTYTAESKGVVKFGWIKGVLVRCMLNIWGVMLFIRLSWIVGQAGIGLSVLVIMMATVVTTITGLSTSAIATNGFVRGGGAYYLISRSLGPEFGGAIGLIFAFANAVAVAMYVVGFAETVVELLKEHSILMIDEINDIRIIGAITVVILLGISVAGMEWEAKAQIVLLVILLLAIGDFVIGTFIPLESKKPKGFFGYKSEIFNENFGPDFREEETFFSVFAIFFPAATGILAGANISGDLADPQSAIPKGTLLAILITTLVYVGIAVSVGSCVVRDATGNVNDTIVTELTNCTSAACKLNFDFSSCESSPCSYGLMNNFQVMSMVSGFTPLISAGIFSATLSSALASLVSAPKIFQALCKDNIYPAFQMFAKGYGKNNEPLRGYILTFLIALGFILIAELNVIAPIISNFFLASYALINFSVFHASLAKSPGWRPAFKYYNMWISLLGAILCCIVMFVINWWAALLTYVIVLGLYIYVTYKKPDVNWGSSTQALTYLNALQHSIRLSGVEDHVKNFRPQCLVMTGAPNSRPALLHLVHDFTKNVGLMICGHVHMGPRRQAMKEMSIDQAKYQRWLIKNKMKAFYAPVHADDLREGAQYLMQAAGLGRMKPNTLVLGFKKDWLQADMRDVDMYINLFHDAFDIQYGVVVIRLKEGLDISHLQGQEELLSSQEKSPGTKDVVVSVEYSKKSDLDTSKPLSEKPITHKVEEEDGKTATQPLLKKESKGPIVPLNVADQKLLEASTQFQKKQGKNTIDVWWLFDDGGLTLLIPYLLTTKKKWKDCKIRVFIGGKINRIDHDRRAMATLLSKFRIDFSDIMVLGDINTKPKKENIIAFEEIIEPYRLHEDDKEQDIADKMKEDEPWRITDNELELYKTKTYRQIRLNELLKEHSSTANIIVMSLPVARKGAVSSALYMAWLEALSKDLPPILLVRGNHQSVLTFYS
Protocol description: TI+ flux assay, HEK-293 cells expressing NKCC1
Assay conditions: read-out: concentration at which effects on NKCC1 were seen (EC50 chart FIG. 1G)

Chemical smiles: C[C@@H]1CN(c2nc3c(c(Nc4ccc(C5CCCCC5)cc4)n2)COC3)CCO1
EC50: > 100 µM

###

Target or system: UniProt Q9Y666
Sequence (Q9Y666 1-1083): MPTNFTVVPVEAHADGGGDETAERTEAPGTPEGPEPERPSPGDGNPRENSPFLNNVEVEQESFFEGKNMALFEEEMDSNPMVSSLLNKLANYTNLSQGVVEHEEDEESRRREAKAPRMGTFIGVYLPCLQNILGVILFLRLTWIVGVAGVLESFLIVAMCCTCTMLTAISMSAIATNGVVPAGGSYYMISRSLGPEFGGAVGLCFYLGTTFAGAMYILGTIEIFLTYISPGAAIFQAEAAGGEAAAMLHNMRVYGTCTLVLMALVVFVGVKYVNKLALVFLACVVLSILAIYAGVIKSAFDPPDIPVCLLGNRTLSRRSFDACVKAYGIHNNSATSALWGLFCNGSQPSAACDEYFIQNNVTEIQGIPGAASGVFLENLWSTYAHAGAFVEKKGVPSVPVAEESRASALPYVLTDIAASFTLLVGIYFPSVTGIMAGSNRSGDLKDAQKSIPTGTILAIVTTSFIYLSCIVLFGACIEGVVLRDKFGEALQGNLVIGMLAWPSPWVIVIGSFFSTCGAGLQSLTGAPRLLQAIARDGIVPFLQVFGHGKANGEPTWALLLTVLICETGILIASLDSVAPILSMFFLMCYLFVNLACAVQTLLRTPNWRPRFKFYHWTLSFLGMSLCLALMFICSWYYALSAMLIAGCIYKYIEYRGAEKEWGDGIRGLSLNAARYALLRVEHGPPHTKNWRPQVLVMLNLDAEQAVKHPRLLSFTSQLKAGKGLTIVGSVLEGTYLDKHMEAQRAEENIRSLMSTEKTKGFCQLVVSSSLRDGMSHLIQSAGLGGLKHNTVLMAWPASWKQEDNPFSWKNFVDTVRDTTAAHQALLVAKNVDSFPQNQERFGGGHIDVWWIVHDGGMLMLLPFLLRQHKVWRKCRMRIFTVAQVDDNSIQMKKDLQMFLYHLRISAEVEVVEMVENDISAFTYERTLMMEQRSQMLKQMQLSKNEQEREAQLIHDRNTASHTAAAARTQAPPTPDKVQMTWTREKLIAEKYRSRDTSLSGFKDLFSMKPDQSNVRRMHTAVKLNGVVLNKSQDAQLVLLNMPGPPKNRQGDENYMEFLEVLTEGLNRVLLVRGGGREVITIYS
Protocol description: TI+ flux assay, HEK-293 cells expressing KCC4
Assay conditions: read-out: concentration at which effects on KCC4 were seen (EC50 chart FIG. 1G)
pEC50: −log10 of the molar value.

Compound: C[C@@H]1CN(c2nc3c(c(Nc4ccc(C5CCCCC5)cc4)n2)COC3)CCO1 [Compound A]
pEC50: < 4.00
